Entries and their Sweetness Potency in Water
Experiment: Isosweet determination (2-AFC) vs sucrose in acidified water, sweetness potency
Type: in vivo, human
Conditions: 2.5% SE, pH = 3.2
Description: As an example, Reb AM was evaluated.
Answer format: numeric, x sugar equivalent implied, no suffix.

Consider the following illustrative entries.
compound	value observed
C=C1C[C@@]23CC[C@H]4[C@@](C)(CCC[C@@]4(C)C(=O)O[C@@H]4O[C@H](CO)[C@@H](O)[C@H](O[C@@H]5O[C@H](CO)[C@@H](O)[C@H](O)[C@H]5O)[C@H]4O[C@@H]4O[C@H](CO)[C@@H](O)[C@H](O)[C@H]4O)[C@@H]2CC[C@]1(O[C@@H]1O[C@H](CO)[C@@H](O)[C@H](O[C@@H]2O[C@H](CO)[C@@H](O)[C@H](O)[C@H]2O)[C@H]1O[C@@H]1O[C@H](CO)[C@@H](O)[C@H](O)[C@H]1O)C3 [Reb M, rebaudioside M]	298
C=C1C[C@@]23CC[C@H]4[C@@](C)(CCC[C@@]4(C)C(=O)O[C@@H]4O[C@H](CO)[C@@H](O)[C@H](O)[C@H]4O)[C@@H]2CC[C@]1(O[C@@H]1O[C@H](CO)[C@@H](O)[C@H](O[C@@H]2O[C@H](CO)[C@@H](O)[C@H](O)[C@H]2O)[C@H]1O[C@@H]1O[C@H](CO)[C@@H](O)[C@H](O)[C@H]1O)C3 [Reb A, rebaudioside A]	266

response.value for C=C1C[C@@]23CC[C@H]4[C@@](C)(CCC[C@@]4(C)C(=O)O[C@@H]4O[C@H](CO)[C@@H](O)[C@H](O[C@@H]5O[C@H](CO)[C@@H](O)[C@H](O)[C@H]5O)[C@H]4O[C@@H]4O[C@H](CO)[C@@H](O)[C@H](O)[C@H]4O)[C@@H]2CC[C@]1(O[C@@H]1O[C@H](CO)[C@@H](O)[C@H](O)[C@H]1O[C@@H]1O[C@H](CO)[C@@H](O)[C@H](O)[C@H]1O)C3 [Reb AM, Rebaudioside AM] (field: Sweetness Potency in Water) = 167

response.value for C=C1C[C@@]23CC[C@H]4[C@@](C)(CCC[C@@]4(C)C(=O)O[C@@H]4O[C@H](CO)[C@@H](O)[C@H](O)[C@H]4O[C@@H]4O[C@H](CO)[C@@H](O)[C@H](O)[C@H]4O)[C@@H]2CC[C@]1(O[C@@H]1O[C@H](CO)[C@@H](O)[C@H](O[C@@H]2O[C@H](CO)[C@@H](O)[C@H](O)[C@H]2O)[C@H]1O[C@@H]1O[C@H](CO)[C@@H](O)[C@H](O)[C@H]1O)C3 [Reb D, rebaudioside D] (field: Sweetness Potency in Water) = 403

====

Experiment: Isosweet determination (2-AFC) vs sucrose in acidified water, sweetness potency
Type: in vivo, human
Details: 5.0% SE, pH = 3.2
Experimental: As an example, Reb AM was evaluated.
observable: Sweetness Equivalent (ppm) in Water
Answer format: numeric, ppm implied, no suffix.

Consider the following illustrative entries.
compound	Sweetness Equivalent (ppm) in Water
C=C1C[C@@]23CC[C@H]4[C@@](C)(CCC[C@@]4(C)C(=O)O[C@@H]4O[C@H](CO)[C@@H](O)[C@H](O[C@@H]5O[C@H](CO)[C@@H](O)[C@H](O)[C@H]5O)[C@H]4O[C@@H]4O[C@H](CO)[C@@H](O)[C@H](O)[C@H]4O)[C@@H]2CC[C@]1(O[C@@H]1O[C@H](CO)[C@@H](O)[C@H](O[C@@H]2O[C@H](CO)[C@@H](O)[C@H](O)[C@H]2O)[C@H]1O[C@@H]1O[C@H](CO)[C@@H](O)[C@H](O)[C@H]1O)C3 [Reb M, rebaudioside M]	209
C=C1C[C@@]23CC[C@H]4[C@@](C)(CCC[C@@]4(C)C(=O)O[C@@H]4O[C@H](CO)[C@@H](O)[C@H](O)[C@H]4O[C@@H]4O[C@H](CO)[C@@H](O)[C@H](O)[C@H]4O)[C@@H]2CC[C@]1(O[C@@H]1O[C@H](CO)[C@@H](O)[C@H](O[C@@H]2O[C@H](CO)[C@@H](O)[C@H](O)[C@H]2O)[C@H]1O[C@@H]1O[C@H](CO)[C@@H](O)[C@H](O)[C@H]1O)C3 [Reb D, rebaudioside D]	212
C=C1C[C@@]23CC[C@H]4[C@@](C)(CCC[C@@]4(C)C(=O)O[C@@H]4O[C@H](CO)[C@@H](O)[C@H](O)[C@H]4O)[C@@H]2CC[C@]1(O[C@@H]1O[C@H](CO)[C@@H](O)[C@H](O[C@@H]2O[C@H](CO)[C@@H](O)[C@H](O)[C@H]2O)[C@H]1O[C@@H]1O[C@H](CO)[C@@H](O)[C@H](O)[C@H]1O)C3 [Reb A, rebaudioside A]	299

Moving on to the next compound.
response.value for C=C1C[C@@]23CC[C@H]4[C@@](C)(CCC[C@@]4(C)C(=O)O[C@@H]4O[C@H](CO)[C@@H](O)[C@H](O[C@@H]5O[C@H](CO)[C@@H](O)[C@H](O)[C@H]5O)[C@H]4O[C@@H]4O[C@H](CO)[C@@H](O)[C@H](O)[C@H]4O)[C@@H]2CC[C@]1(O[C@@H]1O[C@H](CO)[C@@H](O)[C@H](O)[C@H]1O[C@@H]1O[C@H](CO)[C@@H](O)[C@H](O)[C@H]1O)C3 [Reb AM, Rebaudioside AM] (field: Sweetness Equivalent (ppm) in Water) = 365
